Molecular target: Tyrosine-protein kinase BTK (Homo sapiens)
Sequence (Q06187 whole entry): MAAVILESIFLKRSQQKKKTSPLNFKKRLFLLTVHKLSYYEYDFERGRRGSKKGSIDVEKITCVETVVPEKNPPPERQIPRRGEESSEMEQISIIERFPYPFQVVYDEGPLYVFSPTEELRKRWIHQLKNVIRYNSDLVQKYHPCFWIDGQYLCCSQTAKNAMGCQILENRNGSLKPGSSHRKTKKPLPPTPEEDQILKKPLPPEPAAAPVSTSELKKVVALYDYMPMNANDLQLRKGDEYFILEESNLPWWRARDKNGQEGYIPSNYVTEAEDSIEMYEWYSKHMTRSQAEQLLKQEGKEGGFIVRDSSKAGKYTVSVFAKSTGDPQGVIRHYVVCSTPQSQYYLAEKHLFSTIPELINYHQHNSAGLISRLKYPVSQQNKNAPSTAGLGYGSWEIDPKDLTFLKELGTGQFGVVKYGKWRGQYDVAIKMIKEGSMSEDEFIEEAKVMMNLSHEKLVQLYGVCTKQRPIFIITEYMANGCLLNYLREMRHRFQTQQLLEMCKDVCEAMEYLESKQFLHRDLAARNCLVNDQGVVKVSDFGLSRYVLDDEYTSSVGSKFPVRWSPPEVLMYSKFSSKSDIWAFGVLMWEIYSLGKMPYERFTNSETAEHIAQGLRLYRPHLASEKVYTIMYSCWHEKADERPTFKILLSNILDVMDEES
property: pIC50
Kindly note that pIC50 refers to -log10 of the concentration in mol/L and answer with the value alone.

Asked: Report value only: pIC50, Tyrosine-protein kinase BTK (Homo sapiens), `C=CC(=O)N[C@H]1CCN(c2ccc(C(N)=O)c(Nc3ccc(C(=O)N4CCOCC4)cc3)n2)C1`
Given back: 8.80

---

Biological target: EGFR (Homo sapiens)
Sequence (P00533 whole entry): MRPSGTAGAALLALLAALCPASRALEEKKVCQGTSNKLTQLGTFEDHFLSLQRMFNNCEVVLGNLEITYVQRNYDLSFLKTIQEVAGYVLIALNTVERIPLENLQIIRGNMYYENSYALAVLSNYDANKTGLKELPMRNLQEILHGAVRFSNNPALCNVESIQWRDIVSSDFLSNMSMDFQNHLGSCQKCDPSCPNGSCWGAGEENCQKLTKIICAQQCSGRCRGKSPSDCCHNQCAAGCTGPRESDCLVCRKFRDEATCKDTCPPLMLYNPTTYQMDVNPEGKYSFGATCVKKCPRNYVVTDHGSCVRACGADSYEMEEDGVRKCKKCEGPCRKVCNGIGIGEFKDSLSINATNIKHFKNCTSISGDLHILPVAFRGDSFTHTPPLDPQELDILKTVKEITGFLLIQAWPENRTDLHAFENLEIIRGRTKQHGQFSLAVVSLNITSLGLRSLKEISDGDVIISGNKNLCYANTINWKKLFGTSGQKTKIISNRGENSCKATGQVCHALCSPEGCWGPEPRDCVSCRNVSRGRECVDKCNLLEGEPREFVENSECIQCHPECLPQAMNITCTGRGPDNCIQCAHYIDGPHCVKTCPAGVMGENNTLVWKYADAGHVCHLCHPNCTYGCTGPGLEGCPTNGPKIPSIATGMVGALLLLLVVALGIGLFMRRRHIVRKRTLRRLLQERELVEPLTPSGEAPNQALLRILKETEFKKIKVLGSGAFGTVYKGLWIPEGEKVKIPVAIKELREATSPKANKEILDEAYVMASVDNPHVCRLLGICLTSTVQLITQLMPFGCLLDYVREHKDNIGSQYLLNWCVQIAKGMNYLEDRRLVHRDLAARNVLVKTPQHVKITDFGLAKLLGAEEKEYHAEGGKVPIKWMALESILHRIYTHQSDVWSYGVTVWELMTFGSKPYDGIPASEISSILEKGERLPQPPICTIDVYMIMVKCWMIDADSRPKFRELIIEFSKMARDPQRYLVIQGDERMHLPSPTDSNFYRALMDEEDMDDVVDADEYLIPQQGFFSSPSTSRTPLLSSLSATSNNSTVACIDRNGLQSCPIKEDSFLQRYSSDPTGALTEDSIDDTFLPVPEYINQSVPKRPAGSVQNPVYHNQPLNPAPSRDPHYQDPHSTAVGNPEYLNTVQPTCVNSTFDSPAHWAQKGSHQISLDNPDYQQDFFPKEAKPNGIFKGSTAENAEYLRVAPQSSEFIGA
Test: Inhibition of EGFR (unknown origin) at 1 uM relative to control
property: inhibition at 1 µM

Asked: Tell me its inhibition at 1 µM given `C=CC(=O)N1CCC[C@@H](n2nc(-c3ccc(Oc4ccccc4)cc3)c3c(N)ncnc32)C1` as the entry.
Given back: > 50%

---

Biological target: Voltage-gated inwardly rectifying potassium channel KCNH2 (Homo sapiens, UniProt Q12809)
Sequence (Q12809 whole entry): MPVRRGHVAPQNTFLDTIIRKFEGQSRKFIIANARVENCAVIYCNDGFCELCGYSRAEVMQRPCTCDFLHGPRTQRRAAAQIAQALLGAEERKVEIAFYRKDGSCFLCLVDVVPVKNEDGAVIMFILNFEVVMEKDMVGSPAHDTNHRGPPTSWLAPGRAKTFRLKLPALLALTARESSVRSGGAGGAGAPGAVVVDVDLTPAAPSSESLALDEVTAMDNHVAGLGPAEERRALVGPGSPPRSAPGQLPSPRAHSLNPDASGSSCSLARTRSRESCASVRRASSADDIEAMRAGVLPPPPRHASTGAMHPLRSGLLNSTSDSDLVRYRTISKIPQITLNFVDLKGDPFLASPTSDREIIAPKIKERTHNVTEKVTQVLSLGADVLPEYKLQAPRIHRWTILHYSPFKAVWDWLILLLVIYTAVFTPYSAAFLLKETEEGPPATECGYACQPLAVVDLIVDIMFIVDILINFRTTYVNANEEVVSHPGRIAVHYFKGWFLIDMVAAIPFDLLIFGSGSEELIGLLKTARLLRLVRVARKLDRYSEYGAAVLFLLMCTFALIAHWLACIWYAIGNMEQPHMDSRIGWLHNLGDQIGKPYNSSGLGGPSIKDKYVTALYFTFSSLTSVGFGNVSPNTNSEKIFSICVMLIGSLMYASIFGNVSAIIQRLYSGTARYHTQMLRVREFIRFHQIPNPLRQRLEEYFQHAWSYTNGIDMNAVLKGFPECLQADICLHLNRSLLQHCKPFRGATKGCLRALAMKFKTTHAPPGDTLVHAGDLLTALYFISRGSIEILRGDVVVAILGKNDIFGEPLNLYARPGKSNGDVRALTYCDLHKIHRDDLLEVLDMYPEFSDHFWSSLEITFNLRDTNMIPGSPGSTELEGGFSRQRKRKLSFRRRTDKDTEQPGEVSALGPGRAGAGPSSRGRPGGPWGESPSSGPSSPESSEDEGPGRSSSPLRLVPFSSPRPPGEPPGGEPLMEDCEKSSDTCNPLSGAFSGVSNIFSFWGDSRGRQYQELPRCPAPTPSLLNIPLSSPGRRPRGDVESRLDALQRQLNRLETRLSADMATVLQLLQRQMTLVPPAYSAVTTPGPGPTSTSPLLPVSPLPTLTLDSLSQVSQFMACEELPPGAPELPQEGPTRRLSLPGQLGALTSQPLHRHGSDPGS
property: Ki (nM)
Quick reminder: number only, in nM, skip the unit.

Asked: Report value only: Ki, Voltage-gated inwardly rectifying potassium channel KCNH2 (Homo sapiens, UniProt Q12809), `C=CC(=O)N1C[C@@H]2C[C@H]1CN2c1ccc(C(N)=O)c(Oc2ccc(Oc3ccccc3)cc2)n1`
Given back: 2200

---

Test: Clearance in rat at 0.5 mg/kg, po
Conditions: in vivo
property: CL/F (mL/min/kg)
Quick reminder: number only, in mL/min/kg, skip the unit.

Asked: Tell me its CL/F given `C=CC(=O)N1C[C@@H]2C[C@H]1CN2c1ccc(C(N)=O)c(Oc2ccc(Oc3ccccc3)cc2)n1` as the entry.
Given back: 20.7

---

Experiment: Half life in rat at 0.5 mg/kg, po
Assay type: ADME, organism-based
Details: in vivo
property: half-life
Your reply should be a number followed by the unit it is expressed in.

{"moleculeSmiles": "C=CC(=O)N1C[C@@H]2C[C@H]1CN2c1ccc(C(N)=O)c(Oc2ccc(Oc3ccccc3)cc2)n1", "half-life": "43.2 min"}

// below: half-life requested for another compound
Asked: Tell me its half-life given `C=CC(=O)N1CCC[C@@H](n2nc(-c3ccc(Oc4ccccc4)cc3)c3c(N)ncnc32)C1` as the entry.
Given back: 30 min

---

Target: Cytochrome P450 2C19 (Homo sapiens, UniProt P33261)
Sequence (P33261 whole entry): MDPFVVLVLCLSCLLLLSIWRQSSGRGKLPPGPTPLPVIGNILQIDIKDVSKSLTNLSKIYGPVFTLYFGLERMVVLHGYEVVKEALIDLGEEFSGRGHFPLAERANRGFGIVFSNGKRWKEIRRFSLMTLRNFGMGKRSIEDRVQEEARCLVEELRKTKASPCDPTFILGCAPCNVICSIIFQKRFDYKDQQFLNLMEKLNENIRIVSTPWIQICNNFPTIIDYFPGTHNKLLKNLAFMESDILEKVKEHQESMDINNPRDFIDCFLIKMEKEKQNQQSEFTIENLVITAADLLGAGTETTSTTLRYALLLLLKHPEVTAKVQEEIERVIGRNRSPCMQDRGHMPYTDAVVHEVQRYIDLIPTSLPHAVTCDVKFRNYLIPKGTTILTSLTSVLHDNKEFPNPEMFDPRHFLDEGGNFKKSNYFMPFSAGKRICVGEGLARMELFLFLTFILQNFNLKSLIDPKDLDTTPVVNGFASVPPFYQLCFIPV
property: IC50 (µM)
Quick reminder: number only, in µM, skip the unit.

Asked: Report value only: IC50, Cytochrome P450 2C19 (Homo sapiens, UniProt P33261), C=CC(=O)N1CCC[C@@H](n2nc(-c3ccc(Oc4ccccc4)cc3)c3c(N)ncnc32)C1 [IBRUTINIB]
Given back: 19

---

Experiment: Intrinsic clearance in human liver microsomes assessed per mg protein
Type: ADME, microsome
Conditions: read-out: CLH
Assign class by microsomal CLint: not lower than 100 µL/min/mg means 1 (yes); lower than 100 µL/min/mg means 0 (no).

Solved entries:
{"compound": "C=CC(=O)NCC1CCCN(c2ccc(C(N)=O)c(Oc3ccc(Oc4ccccc4)cc3)n2)C1 (stereo unspecified)", "labelClass": "1 (yes)"}
{"compound": "C=CC(=O)N1CCN(c2ccc(C(N)=O)c(Oc3ccc(Oc4ccccc4)cc3)n2)CC1", "labelClass": "0 (no)"}
{"compound": "C=CC(=O)N[C@H]1CCN(c2ccc(C(N)=O)c(Oc3ccc(Oc4ccccc4)cc3)n2)C1", "labelClass": "0 (no)"}
{"compound": "C=CC(=O)N1CC[C@@H](Nc2ccc(C(N)=O)c(Oc3ccc(Oc4ccccc4)cc3)n2)C1", "labelClass": "1 (yes)"}
{"compound": "C=CC(=O)N1CC[C@H](Nc2ccc(C(N)=O)c(Oc3ccc(Oc4ccccc4)cc3)n2)C1", "labelClass": "1 (yes)"}

Could you now consider this next compound?
Asked: Dear colleague, could you confirm whether `C=CC(=O)N1C2CC1CN(c1ccc(C(N)=O)c(Oc3ccc(Oc4ccccc4)cc3)n1)C2` has microsomal CLint at or above 100 µL/min/mg?
Given back: 0 (no)

---

Experiment: Fraction unbound in rat plasma
Assay type: ADME, cell-free
property: fraction unbound
Give the figure by itself; no unit, no explanation.

{"compound": "C=CC(=O)N1C[C@@H]2C[C@H]1CN2c1ccc(C(N)=O)c(Oc2ccc(Oc3ccccc3)cc2)n1", "assayValue": 0.0031}

// below: fraction unbound requested for another compound
Asked: Tell me its fraction unbound given C=CC(=O)N1CCC[C@@H](n2nc(-c3ccc(Oc4ccccc4)cc3)c3c(N)ncnc32)C1 [IBRUTINIB] as the entry.
Given back: 0.02

---

Readings of microsomal CLint for the listed compounds
Test: Intrinsic clearance in human liver microsomes assessed per mg protein
Type: ADME, microsome
Details: read-out: CLH
Quick reminder: number only, in µL/min/mg, skip the unit.

Consider the worked cases shown below.
{"moleculeSmiles": "C=CC(=O)N1C[C@H]2C[C@@H]1CN2c1ccc(C(N)=O)c(Oc2ccc(Oc3ccccc3)cc2)n1", "resultUnits": "µL/min/mg", "microsomal CLint": 33}
{"moleculeSmiles": "C=CC(=O)N1C[C@@H]2C[C@H]1CN2c1ccc(C(N)=O)c(Oc2ccc(Oc3ccccc3)cc2)n1", "resultUnits": "µL/min/mg", "microsomal CLint": 74}
{"moleculeSmiles": "C=CC(=O)N[C@@H]1CCCN(c2ccc(C(N)=O)c(Oc3ccc(Oc4ccccc4)cc3)n2)C1", "resultUnits": "µL/min/mg", "microsomal CLint": 309}

// below: microsomal CLint requested for another compound
Asked: Tell me its microsomal CLint given `C=CC(=O)N1C2CCC1CN(c1ccc(C(N)=O)c(Oc3ccc(Oc4ccccc4)cc3)n1)C2` as the entry.
Given back: 106

---

Test: Intrinsic clearance in rat liver microsomes assessed per mg protein
Type: ADME, microsome
Conditions: read-out: CLH
property: microsomal CLint (µL/min/mg)
Quick reminder: number only, in µL/min/mg, skip the unit.

Consider the worked cases shown below.
{"compound": "C=CC(=O)N[C@@H]1CCCN(c2ccc(C(N)=O)c(Oc3ccc(Oc4ccccc4)cc3)n2)C1", "assayValue": 1000}
{"compound": "C=CC(=O)N1CC[C@@H](Nc2ccc(C(N)=O)c(Oc3ccc(Oc4ccccc4)cc3)n2)C1", "assayValue": 136}
{"compound": "C=CC(=O)N1CC[C@H](Nc2ccc(C(N)=O)c(Oc3ccc(Oc4ccccc4)cc3)n2)C1", "assayValue": 254}
{"compound": "C=CC(=O)NCC1CCCN(c2ccc(C(N)=O)c(Oc3ccc(Oc4ccccc4)cc3)n2)C1 (stereo not given)", "assayValue": 302}
{"compound": "C=CC(=O)N1C[C@@H]2C[C@H]1CN2c1ccc(C(N)=O)c(Oc2ccc(Oc3ccccc3)cc2)n1", "assayValue": 203}
{"compound": "C=CC(=O)N[C@H]1CCN(c2ccc(C(N)=O)c(Oc3ccc(Oc4ccccc4)cc3)n2)C1", "assayValue": 21}

Asked: Tell me its microsomal CLint given `C=CC(=O)N1CCN(c2ccc(C(N)=O)c(Oc3ccc(Oc4ccccc4)cc3)n2)CC1` as the entry.
Given back: 97

Asked: Tell me its microsomal CLint given `C=CC(=O)N1C[C@H]2C[C@@H]1CN2c1ccc(C(N)=O)c(Oc2ccc(Oc3ccccc3)cc2)n1` as the entry.
Given back: 148

Asked: Tell me its microsomal CLint given `C=CC(=O)N1C2CC1CN(c1ccc(C(N)=O)c(Oc3ccc(Oc4ccccc4)cc3)n1)C2` as the entry.
Given back: 167

Asked: Tell me its microsomal CLint given `C=CC(=O)N1C2CCC1CN(c1ccc(C(N)=O)c(Oc3ccc(Oc4ccccc4)cc3)n1)C2` as the entry.
Given back: 145

---

Experiment: Intrinsic clearance in mouse liver microsomes assessed per mg protein
Type: ADME, microsome
Conditions: read-out: CLH
property: microsomal CLint (µL/min/mg)
Quick reminder: number only, in µL/min/mg, skip the unit.

Consider the worked cases shown below.
{"compound": "C=CC(=O)N1CC[C@H](Nc2ccc(C(N)=O)c(Oc3ccc(Oc4ccccc4)cc3)n2)C1", "resultUnits": "µL/min/mg", "assayValue": 228}
{"compound": "C=CC(=O)N1C[C@H]2C[C@@H]1CN2c1ccc(C(N)=O)c(Oc2ccc(Oc3ccccc3)cc2)n1", "resultUnits": "µL/min/mg", "assayValue": 472}
{"compound": "C=CC(=O)N[C@H]1CCN(c2ccc(C(N)=O)c(Oc3ccc(Oc4ccccc4)cc3)n2)C1", "resultUnits": "µL/min/mg", "assayValue": 27}
{"compound": "C=CC(=O)N1C2CC1CN(c1ccc(C(N)=O)c(Oc3ccc(Oc4ccccc4)cc3)n1)C2", "resultUnits": "µL/min/mg", "assayValue": 647}
{"compound": "C=CC(=O)N1CCN(c2ccc(C(N)=O)c(Oc3ccc(Oc4ccccc4)cc3)n2)CC1", "resultUnits": "µL/min/mg", "assayValue": 18}
{"compound": "C=CC(=O)NCC1CCCN(c2ccc(C(N)=O)c(Oc3ccc(Oc4ccccc4)cc3)n2)C1 (stereo not given)", "resultUnits": "µL/min/mg", "assayValue": 562}

Asked: Tell me its microsomal CLint given `C=CC(=O)N1C[C@@H]2C[C@H]1CN2c1ccc(C(N)=O)c(Oc2ccc(Oc3ccccc3)cc2)n1` as the entry.
Given back: 62

Asked: Tell me its microsomal CLint given `C=CC(=O)N[C@@H]1CCCN(c2ccc(C(N)=O)c(Oc3ccc(Oc4ccccc4)cc3)n2)C1` as the entry.
Given back: 488

Asked: Tell me its microsomal CLint given `C=CC(=O)N1CC[C@@H](Nc2ccc(C(N)=O)c(Oc3ccc(Oc4ccccc4)cc3)n2)C1` as the entry.
Given back: 191

Asked: Tell me its microsomal CLint given `C=CC(=O)N1C2CCC1CN(c1ccc(C(N)=O)c(Oc3ccc(Oc4ccccc4)cc3)n1)C2` as the entry.
Given back: 315

# credit: ChEMBL document CHEMBL4229542
